molecular target: USP1-UAF1 (Homo sapiens)
Sequence (O94782 whole entry): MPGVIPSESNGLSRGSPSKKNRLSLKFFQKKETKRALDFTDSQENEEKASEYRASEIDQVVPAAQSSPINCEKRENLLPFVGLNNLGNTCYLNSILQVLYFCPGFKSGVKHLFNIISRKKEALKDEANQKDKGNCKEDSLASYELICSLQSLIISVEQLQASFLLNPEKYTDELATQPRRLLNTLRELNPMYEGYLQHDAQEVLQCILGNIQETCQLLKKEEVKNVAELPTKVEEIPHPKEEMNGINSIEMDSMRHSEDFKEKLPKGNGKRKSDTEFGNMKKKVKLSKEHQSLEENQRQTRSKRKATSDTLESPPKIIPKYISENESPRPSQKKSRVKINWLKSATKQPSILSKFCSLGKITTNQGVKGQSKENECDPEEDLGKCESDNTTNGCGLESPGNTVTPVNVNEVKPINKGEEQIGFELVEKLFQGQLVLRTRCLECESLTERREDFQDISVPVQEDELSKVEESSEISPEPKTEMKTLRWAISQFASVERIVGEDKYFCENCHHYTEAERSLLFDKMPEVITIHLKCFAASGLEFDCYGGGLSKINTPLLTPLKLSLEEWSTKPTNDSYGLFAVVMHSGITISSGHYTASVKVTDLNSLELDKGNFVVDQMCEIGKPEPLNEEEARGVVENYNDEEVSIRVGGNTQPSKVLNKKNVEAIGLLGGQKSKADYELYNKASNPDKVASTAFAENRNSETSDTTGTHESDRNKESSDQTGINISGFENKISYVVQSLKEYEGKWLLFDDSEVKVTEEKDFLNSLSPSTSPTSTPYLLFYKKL
Sequence (Q8TAF3 whole entry partner): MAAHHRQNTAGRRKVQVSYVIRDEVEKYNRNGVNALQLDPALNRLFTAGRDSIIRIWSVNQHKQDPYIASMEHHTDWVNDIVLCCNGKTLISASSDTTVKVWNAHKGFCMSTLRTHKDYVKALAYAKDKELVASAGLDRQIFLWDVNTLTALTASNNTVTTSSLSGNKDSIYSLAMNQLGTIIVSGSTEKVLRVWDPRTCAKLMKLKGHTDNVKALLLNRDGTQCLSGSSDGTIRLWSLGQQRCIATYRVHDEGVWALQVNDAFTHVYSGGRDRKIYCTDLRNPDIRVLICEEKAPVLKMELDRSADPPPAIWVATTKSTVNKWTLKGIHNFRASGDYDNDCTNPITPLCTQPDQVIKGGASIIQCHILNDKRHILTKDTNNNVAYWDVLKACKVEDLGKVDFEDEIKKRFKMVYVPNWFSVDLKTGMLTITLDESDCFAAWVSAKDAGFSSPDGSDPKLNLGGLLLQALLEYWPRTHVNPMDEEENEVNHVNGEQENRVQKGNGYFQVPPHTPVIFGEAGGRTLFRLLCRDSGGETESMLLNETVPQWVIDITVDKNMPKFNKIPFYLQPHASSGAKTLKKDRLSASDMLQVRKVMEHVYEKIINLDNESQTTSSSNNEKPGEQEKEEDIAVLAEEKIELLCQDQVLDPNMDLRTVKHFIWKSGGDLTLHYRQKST
Readout Type: IC50

Examples with answers:
- [2H]C([2H])([2H])n1cc(C(F)(F)F)nc1-c1ccc(Cc2c[nH]c3cnc(-c4c(OC)ncnc4C4CC4)nc23)cc1: < 0.03 µM
- COc1ncnc(C2CC2)c1-c1ncc2[nH]cc(Cc3cc(F)c(-n4nc(C(F)(F)F)cc4C)c(F)c3)c2n1: < 0.03 µM
- CN1CC(n2cc(C(F)(F)F)nc2-c2ccc(Cc3c[nH]c4cnc(-c5cccnc5OC(F)F)nc34)cc2)C1: 0.1 to 10 µM
- COc1ncnc(C2CC2)c1-c1ncc2[nH]cc(C(C)c3ccc(-c4nc(C(F)(F)F)cn4C)cc3)c2n1 (stereo not drawn) [Compound 128]: < 0.03 µM
- CNCc1[nH]c2cnc(-c3c(OC)ncnc3C3CC3)nc2c1Cc1ccc(-c2nc(C(F)(F)F)cn2C)cc1: 0.1 to 10 µM
- COc1ncnc(OC)c1-c1ncc2[nH]nc(Cc3ccc(-c4nc(C(F)(F)F)cn4C)cc3)c2n1: < 0.03 µM
- COc1ncnc(C2CC2)c1-c1nc(CN)c2[nH]cc(Cc3ccc(-c4nc(C(F)(F)F)cn4C)cc3)c2n1: 0.1 to 10 µM
- Cn1cc(C(F)(F)F)nc1-c1ccc(Cc2c[nH]c3cnc(-c4c(C5CC5)ncnc4C4CC4)nc23)cc1: < 0.03 µM
- Cn1cc(C(F)(F)F)nc1-c1ccc(Nc2c[nH]c3cnc(-c4cccnc4C4CC4)nc23)cc1: 0.1 to 10 µM
- CN(C)c1ncccc1-c1ncc2[nH]cc(Cc3ccc(-c4nc(C(F)(F)F)cn4C)cc3)c2n1: 0.1 to 10 µM

Which IC50 is listed for COc1ncnc(C2CC2)c1-c1ncc2[nH]nc(Cc3ccc(-c4nc(C(F)(F)F)cn4C4COC4)cc3)c2n1 ?
0.03 to 0.1 µM

Which IC50 is listed for COc1ncnc(C2CC2)c1-c1ncc2[nH]cc(C3(c4ccc(-c5nc(C(F)(F)F)cn5C)cc4)CC3)c2n1 ?
0.03 to 0.1 µM

Which IC50 is listed for CC(C)c1ccccc1-c1ncc2[nH]cc(C(=O)c3ccc(-c4nc(C(F)(F)F)cn4C)cc3)c2n1 ?
≥ 10 µM

Which IC50 is listed for CC(C)c1ccccc1-c1cc2c(CN3CCN(c4nc(C(F)(F)F)cn4C)CC3)c[nH]c2cn1 ?
0.1 to 10 µM

Which IC50 is listed for CC(C)n1cc(C(F)(F)F)nc1-c1ccc(Cc2n[nH]c3cnc(-c4c(OC(F)F)ncnc4C4CC4)nc23)cc1 ?
< 0.03 µM
